Ref: paper PMC3412067

target: KOR-1 (kappa) (Mus musculus, UniProt P33534); assay: Competition binding against 125I-BNtxA in CHO cells stably expressing KOR-1
measureName: pKi
Kindly note that pKi refers to -log10 of the concentration in mol/L and answer with the value alone.

So for `C=CCN1CC[C@]23c4c5ccc(O)c4O[C@H]2[C@H](NC(=O)CCCCC)CC[C@@]3(O)[C@H]1C5` , the logged pKi turned out to be 8.04

====

target: 6TM/E11 sites (Mus musculus); format: binding; settings: compared to 15
measureName: fold lower binding affinity for the 6TM/E11 site

Please review the entries below; each comes with its answer.
In [3]: df
Out[3]:
                               recordsmiles                    testsystem  observed
0  C=CCN1CC[C@]23c4c5ccc(O)c4O[C@H]2[C@H](NC(=O)c2cccc(OC)c2)CC[C@@]3(O)[C@H]1C5  6TM/E11 sites (Mus musculus)   10 fold
1  C=CCN1CC[C@]23c4c5ccc(O)c4O[C@H]2[C@@H](NC(=O)c2cccc(I)c2)CC[C@@]3(O)[C@H]1C5  6TM/E11 sites (Mus musculus)   33 fold

Consider the additional compound presented here.
So for `C=CCN1CC[C@]23c4c5ccc(O)c4O[C@H]2[C@H](NC(=O)c2ccccc2I)CC[C@@]3(O)[C@H]1C5` , the logged fold lower binding affinity for the 6TM/E11 site turned out to be 100 fold
